Biological target: surface displayed CK2α’ + CK2β (CK2α’ containing human CK2 holoenzyme) (Homo sapiens)
Construct: surface-display (autodisplay) carrier protein
Sequence (P19784 whole entry): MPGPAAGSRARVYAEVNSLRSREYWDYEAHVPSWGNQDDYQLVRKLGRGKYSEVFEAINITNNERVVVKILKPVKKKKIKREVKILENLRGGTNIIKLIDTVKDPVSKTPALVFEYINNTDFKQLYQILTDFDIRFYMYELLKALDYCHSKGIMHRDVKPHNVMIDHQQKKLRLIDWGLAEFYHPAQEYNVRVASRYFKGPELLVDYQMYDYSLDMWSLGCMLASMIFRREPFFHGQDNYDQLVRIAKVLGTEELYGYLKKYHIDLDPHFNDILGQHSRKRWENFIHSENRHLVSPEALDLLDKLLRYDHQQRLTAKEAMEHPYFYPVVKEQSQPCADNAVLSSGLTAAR
Sequence (P67870 whole entry partner): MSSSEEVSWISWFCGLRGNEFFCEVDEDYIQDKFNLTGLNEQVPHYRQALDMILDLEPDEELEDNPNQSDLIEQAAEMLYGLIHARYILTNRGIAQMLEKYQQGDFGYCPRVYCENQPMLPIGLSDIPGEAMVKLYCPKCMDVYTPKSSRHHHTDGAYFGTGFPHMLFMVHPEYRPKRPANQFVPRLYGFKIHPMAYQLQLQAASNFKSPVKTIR
Assay: whole-cell CK2 selectivity assay, holoenzyme surface displayed on E. coli
Settings: CK2α’ + CK2β displayed on E. coli, 600 µM ATP, 100 µM substrate peptide
Method: We recently reported a whole cell CK2 activity assay, which can be used for testing the selectivity of compounds towards CK2α and CK2α’ [47]. […] For this purpose, their IC50 were determined following the protocol of the recently described whole-cell CK2 selectivity assay. […] The samples were then subjected to a Beckman Coulter pa800 plus (Krefeld, Germany) CE system and analyzed for phosphorylation of the substrate peptide. […] IC50 values were calculated from the resulting dose-response curves. […]
pIC50: −log10 of the molar value.
assayMetric: pIC50

> print(dat)
                                   compound  assaymetric  reportedresult
1  COc1ccc(/N=C/c2c(O)ccc3c2oc2cc(Cl)c(O)c(Cl)c23)cc1 [compound 5]        pIC50            7.14
2  COc1ccc(N/C=C2\C(=O)CCc3c2oc2cc(Cl)c(O)c(Cl)c32)cc1 [4a]        pIC50            7.37
